Quick list: AC50 per entry.
biological target: 5-hydroxytryptamine receptor 1A (Homo sapiens, UniProt P08908); format: functional, cell-based; further: assay procedure not described here
Sequence (P08908 whole entry): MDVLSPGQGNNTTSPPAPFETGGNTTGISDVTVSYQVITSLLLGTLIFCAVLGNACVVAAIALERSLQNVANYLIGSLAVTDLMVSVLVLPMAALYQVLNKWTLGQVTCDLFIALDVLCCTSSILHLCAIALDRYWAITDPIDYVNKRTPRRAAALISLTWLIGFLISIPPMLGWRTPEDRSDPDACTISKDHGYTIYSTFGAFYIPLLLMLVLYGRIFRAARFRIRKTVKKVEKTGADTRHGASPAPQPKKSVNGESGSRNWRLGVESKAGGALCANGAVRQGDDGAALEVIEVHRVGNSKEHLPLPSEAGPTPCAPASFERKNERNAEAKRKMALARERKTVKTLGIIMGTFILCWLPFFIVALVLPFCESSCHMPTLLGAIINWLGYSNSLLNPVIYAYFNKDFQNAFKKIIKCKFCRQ

Note down AC50 recorded for C[C@]12CCC(=O)C=C1CC[C@H]1[C@@H]3CC[C@](O)(C(=O)CO)[C@@]3(C)C[C@H](O)[C@@]12F
> 10 µM

Could you please provide reported AC50 for CN(C)CCC=C1c2ccccc2CCc2ccccc21 ? Thanks!
> 10 µM

Indicate its recorded AC50; the molecule in question is CS(=O)(=O)Nc1ccc([N+](=O)[O-])cc1Oc1ccccc1 [NIMESULIDE]
> 30 µM

Given CCOC(=O)O[C@]1(C(=O)COC(=O)CC)CC[C@H]2[C@@H]3CCC4=CC(=O)C=C[C@]4(C)[C@H]3[C@@H](O)C[C@@]21C [PREDNICARBATE] , respond with its AC50.
> 10 µM

Input C=C(c1ccccc1OCc1cccc(Cl)c1)n1ccnc1 , output reported AC50.
> 10 µM

Indicate the recorded AC50 value for this molecule: CCOC(=O)C1=C(C)NC(C)=C(C(=O)OC)C1c1cccc(Cl)c1Cl (configuration not stated)
> 10 µM

Please supply the value of reported AC50 for the item CCC[C@@]1(CCc2ccccc2)CC(O)=C([C@H](CC)c2cccc(NS(=O)(=O)c3ccc(C(F)(F)F)cn3)c2)C(=O)O1
> 30 µM

---

Parameter AC50, tested on UniProt P08172, listed per item.
Sequence (P08172 whole entry): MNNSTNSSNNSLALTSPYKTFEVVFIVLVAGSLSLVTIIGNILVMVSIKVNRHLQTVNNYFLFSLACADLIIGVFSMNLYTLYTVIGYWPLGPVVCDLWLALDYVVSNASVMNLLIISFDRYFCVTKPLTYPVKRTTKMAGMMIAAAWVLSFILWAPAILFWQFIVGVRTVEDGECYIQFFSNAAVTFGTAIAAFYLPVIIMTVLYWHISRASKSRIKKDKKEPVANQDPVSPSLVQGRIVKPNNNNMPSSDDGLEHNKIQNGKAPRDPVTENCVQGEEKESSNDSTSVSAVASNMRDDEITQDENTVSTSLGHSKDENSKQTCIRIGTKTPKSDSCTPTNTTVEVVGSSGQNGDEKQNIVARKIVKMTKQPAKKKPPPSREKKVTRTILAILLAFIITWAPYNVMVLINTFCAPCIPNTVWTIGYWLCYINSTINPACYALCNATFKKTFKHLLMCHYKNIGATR

• O=c1[nH]c(=O)n([C@H]2C[C@H](O)[C@@H](CO)O2)cc1/C=C/Br = > 30 µM
• Cc1ncc(CO)c(CO)c1O = > 30 µM
• NC(=O)C1(N2CCCCC2)CCN(CCCN2c3ccccc3CCc3ccccc32)CC1 = 4.39 µM
• Cc1c(C(C)C)c(=O)n(-c2ccccc2)n1C = > 30 µM
• C[C@@H]1O[C@@H](O[C@H]2C[C@@H](O)[C@]3(CO)[C@H]4[C@H](O)C[C@]5(C)[C@@H](C6=CC(=O)OC6)CC[C@]5(O)[C@@H]4CC[C@]3(O)C2)[C@H](O)[C@H](O)[C@H]1O = > 30 µM

Under UniProt P08172: report AC50 of NC(=O)N/N=C/c1ccc([N+](=O)[O-])o1 .
> 30 µM

Write AC50 of CCOc1ccc(Cc2nccc3cc(OCC)c(OCC)cc23)cc1OCC ; system used: UniProt P08172
> 30 µM

Quote UniProt P08172 AC50 for entry CN1CCN(C(c2ccccc2)c2ccc(Cl)cc2)CC1 (stereo not drawn) .
0.505 µM

---

target: Motilin receptor (Homo sapiens, UniProt O43193); further: assay procedure not described here
Sequence (O43193 whole entry): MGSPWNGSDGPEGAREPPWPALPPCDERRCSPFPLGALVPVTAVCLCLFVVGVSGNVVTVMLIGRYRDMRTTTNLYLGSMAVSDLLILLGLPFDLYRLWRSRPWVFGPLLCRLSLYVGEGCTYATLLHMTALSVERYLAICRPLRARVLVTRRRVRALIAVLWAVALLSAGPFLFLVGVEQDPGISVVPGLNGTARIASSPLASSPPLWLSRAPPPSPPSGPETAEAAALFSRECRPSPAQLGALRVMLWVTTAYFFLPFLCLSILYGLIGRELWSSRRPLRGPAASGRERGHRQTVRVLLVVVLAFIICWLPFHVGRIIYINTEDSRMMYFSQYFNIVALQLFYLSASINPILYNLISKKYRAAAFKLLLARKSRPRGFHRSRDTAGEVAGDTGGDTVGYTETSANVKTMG
assay_endpoint: AC50

• C[C@H](CCC(=O)O)[C@H]1CC[C@H]2[C@@H]3[C@H](O)C[C@@H]4C[C@H](O)CC[C@]4(C)[C@H]3CC[C@]12C = > 30 µM
• Cc1ccc(S(=O)(=O)NC(=O)N[C@H]2[C@H]3CC[C@@](C)([C@H]2O)C3(C)C)cc1 [GLIBORNURIDE] = > 30 µM
• N=C(N)NC(=O)Cc1c(Cl)cccc1Cl = > 10 µM

Check Motilin receptor (Homo sapiens, UniProt O43193) data and give AC50 for Nc1nc(Cl)nc2c1ncn2[C@@H]1O[C@H](CO)[C@@H](O)[C@@H]1F .
> 30 µM
